measurement-notes: clinical
condition-info: both, human, in vivo, po, Plasma Tmax, oral methadone, control
measure: Tmax (h)

• CC=C1N(C)C(C)CC1(c1ccccc1)c1ccccc1 (centres unmarked) = 2.5
• CCC(=O)C(C[C@H](C)N(C)C)(c1ccccc1)c1ccccc1 = 2

---

measurement-notes: Intravenous methadone pharmacokinetics, protocol 2
Format: in vivo
condition-info: both, human, plasma, 0.1 mg/kg
measure: AUC(0-t)

- CCC(=O)C(C[C@H](C)N(C)C)(c1ccccc1)c1ccccc1: 276 ng·h/mL

---

measurement-notes: clinical
condition-info: both, human, in vivo, po, Plasma t½, oral methadone, cyclosporine-treated
measure: half-life (days)

• CC=C1N(C)C(C)CC1(c1ccccc1)c1ccccc1 (stereo not shown) [R-EDDP] = 3.04

---

measurement-notes: Intravenous methadone pharmacokinetics, protocol 2
Type: in vivo
condition-info: both, human, plasma, 0.1 mg/kg
measure: Cmax (ng/mL)

- CCC(=O)C(C[C@H](C)N(C)C)(c1ccccc1)c1ccccc1 [S-Methadone, S-methadone]: 32.2

---

measurement-notes: clinical
condition-info: both, human, in vivo, po, Plasma t½, oral methadone, control
measure: half-life

* CC=C1N(C)C(C)CC1(c1ccccc1)c1ccccc1 (stereo not shown) | 2.38 days

meta.source: paper PMC4562501
